target: monoclonal antibody 12G6H5 (“Frida”); experiment: inhibition ELISA FIG. 18a, high peptide, 2.5 ng Frida, coat p4073
observable: ELISA signal with competitor
Form field (numeric): enter value without unit.

Recorded ELISA signal with competitor, per entry:
* FGFPEHLLVDFLQSLSC [p1208 …-C] | 0.093
* CFGFPEHVFIDWLQSLS [p4477 C-…] | 0.116
* CGFKPAHVFIDWLQSLS [p4479 C-…] | 1.59
* CDFGFPAHVFIDWLQSLS [p4480 C-…] | 0.103
* CFGFPAHFSIDWLQSLS [p4475 C-…] | 1.43
* CFGFPAHVSFDWLQSLS [p4476 C-…] | 1.42
* CFGFPQHLFTDWLQSLS [p4481 C-…] | 0.156
* CFGFPAHVFIDWLQSLN [p4474 C-…] | 0.179

Enquiry: Look at this binder and give its reported ELISA signal with competitor. CFKPAHVFIDWLQSLS [p4478 C-…]
Return: 1.21

Enquiry: Can you handle CFGFPEHLLVDFLQSLS [p4073 C-…, original CETP epitope] next?
Return: 0.094
